# credit: paper PMC9667936

Target: 14-3-3γ (Homo sapiens, UniProt P61981)
Construct: made in house; host or cells: E. coli NiCo21 (DE3)
Sequence (P61981 1-247): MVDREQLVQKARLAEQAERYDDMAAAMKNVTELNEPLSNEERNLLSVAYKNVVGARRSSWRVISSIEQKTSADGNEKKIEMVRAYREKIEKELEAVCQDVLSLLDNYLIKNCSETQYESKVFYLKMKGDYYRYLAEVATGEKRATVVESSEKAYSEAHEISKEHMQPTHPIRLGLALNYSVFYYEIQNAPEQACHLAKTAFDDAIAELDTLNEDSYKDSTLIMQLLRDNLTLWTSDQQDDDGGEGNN
Experiment: Fluorescence anisotropy (FA) binary binding study: 14-3-3 titrated to fluorescein-labelled peptide
Details: Table S4; from FA Kd; replicate 2
Protocol: 14-3-3γ protein expression (FP/ITC experiments) A pPROEX HTb expression vector encoding the human 14-3-3 protein gamma (14-3-3γ) with an N-terminal his6-tag was transformed by heat shock into NiCo21 (DE3) competent cells. Single colonies were cultured in 50 mL LB medium (100 µg/mL ampicillin). After overnight incubation at 37 °C, cultures were transferred to 2 L TB media (100 µg/mL ampicillin, 1 mM MgCl2) and incubated at 37 °C until an OD600 nm of 0.8-1.2 was reached. […]
Where a SMILES comes first, the peptide text is derived from it. [ ]: non-standard residue; d: D form. ξ: configuration not given here. Phe(4-NO2) = N[C@@H](Cc1ccc([N+](=O)[O-])cc1)C(=O)O; ξAla(4-thiazolyl) = NC(Cc1cscn1)C(=O)O; pS = N[C@@H](COP(=O)(O)O)C(=O)O; β3hS = N[C@@H](CO)CC(=O)O; Nva = CCC[C@H](N)C(=O)O; ξβ3hS = NC(CO)CC(=O)O; βAla = NCCC(=O)O
value kind: ΔG (kcal/mol)
Write the value in kcal/mol as a bare number.

These solved cases illustrate the format of a correct answer.
INSERT INTO measurements (compound, tgt, uom, value_measured) VALUES
  ('CCC[C@H](NC(=O)[C@H](N)CCCCN)C(=O)N[C@@H](Cc1ccc([N+](=O)[O-])cc1)C(=O)NC(Cc1cscn1)C(=O)N[C@@H](COP(=O)(O)O)C(=O)N[C@@H](C)C(=O)N[C@@H](CO)CC(=O)NCCC(=O)N[C@@H](Cc1ccc([N+](=O)[O-])cc1)C(=O)N[C@@H](CCCCN)C(N)=O (stereo partly drawn) [4c] (H-[dK][Nva][Phe(4-NO2)][ξAla(4-thiazolyl)][pS]A[β3hS][βAla][Phe(4-NO2)]K-NH2; N-terminus and C-terminus assumed)', '14-3-3γ (Homo sapiens, UniProt P61981)', 'kcal/mol', -8.1),
  ('CCC[C@H](NC(=O)[C@H](N)CCCCN)C(=O)N[C@@H](Cc1ccc([N+](=O)[O-])cc1)C(=O)N[C@@H](C)C(=O)N[C@@H](COP(=O)(O)O)C(=O)N[C@@H](Cc1ccc([N+](=O)[O-])cc1)C(=O)N[C@@H](CO)CC(=O)NCCC(=O)N[C@@H](Cc1ccc([N+](=O)[O-])cc1)C(=O)N[C@@H](CCCCN)C(N)=O [3a] (H-[dK][Nva][Phe(4-NO2)]A[pS][Phe(4-NO2)][β3hS][βAla][Phe(4-NO2)]K-NH2; N-terminus and C-terminus assumed)', '14-3-3γ (Homo sapiens, UniProt P61981)', 'kcal/mol', -10.1),
  ('CCC[C@H](NC(=O)[C@H](N)CCCCN)C(=O)N[C@@H](Cc1ccc([N+](=O)[O-])cc1)C(=O)NC(Cc1cscn1)C(=O)N[C@@H](COP(=O)(O)O)C(=O)N[C@@H](Cc1ccc([N+](=O)[O-])cc1)C(=O)N[C@@H](CO)CC(=O)NCCC(=O)N[C@@H](Cc1ccccc1)C(=O)N[C@@H](CCCCN)C(N)=O (stereo partly drawn) [5b] (H-[dK][Nva][Phe(4-NO2)][ξAla(4-thiazolyl)][pS][Phe(4-NO2)][β3hS][βAla]FK-NH2; N-terminus and C-terminus assumed)', '14-3-3γ (Homo sapiens, UniProt P61981)', 'kcal/mol', -8.1),
  ('CCC[C@H](NC(=O)[C@H](N)CCCCN)C(=O)N[C@@H](Cc1ccc([N+](=O)[O-])cc1)C(=O)NC(Cc1cscn1)C(=O)N[C@@H](COP(=O)(O)O)C(=O)N[C@@H](Cc1ccc([N+](=O)[O-])cc1)C(=O)NC(CO)CC(=O)NCCC(=O)N[C@@H](Cc1ccc([N+](=O)[O-])cc1)C(=O)N[C@@H](CCCCN)C(N)=O (stereo partly drawn) [compound 1] (H-[dK][Nva][Phe(4-NO2)][ξAla(4-thiazolyl)][pS][Phe(4-NO2)][ξβ3hS][βAla][Phe(4-NO2)]K-NH2)', '14-3-3γ (Homo sapiens, UniProt P61981)', 'kcal/mol', -9.7),
  ('CCC[C@H](NC(=O)[C@H](N)CCCCN)C(=O)N[C@@H](Cc1ccc([N+](=O)[O-])cc1)C(=O)NC(Cc1cscn1)C(=O)N[C@@H](COP(=O)(O)O)C(=O)N[C@@H](Cc1ccccc1)C(=O)N[C@@H](CO)CC(=O)NCCC(=O)N[C@@H](Cc1ccc([N+](=O)[O-])cc1)C(=O)N[C@@H](CCCCN)C(N)=O (stereo partly drawn) [4b] (H-[dK][Nva][Phe(4-NO2)][ξAla(4-thiazolyl)][pS]F[β3hS][βAla][Phe(4-NO2)]K-NH2; N-terminus and C-terminus assumed)', '14-3-3γ (Homo sapiens, UniProt P61981)', 'kcal/mol', -10.2);

Request: Which ΔG value belongs to CCC[C@H](NC(=O)[C@H](N)CCCCN)C(=O)N[C@@H](Cc1ccc([N+](=O)[O-])cc1)C(=O)NC(Cc1cscn1)C(=O)N[C@@H](COP(=O)(O)O)C(=O)N[C@@H](Cc1ccc(O)cc1)C(=O)N[C@@H](CO)CC(=O)NCCC(=O)N[C@@H](Cc1ccc([N+](=O)[O-])cc1)C(=O)N[C@@H](CCCCN)C(N)=O (stereo partly drawn) [4a] (H-[dK][Nva][Phe(4-NO2)][ξAla(4-thiazolyl)][pS]Y[β3hS][βAla][Phe(4-NO2)]K-NH2; N-terminus and C-terminus assumed) ?
Result: -10.1

Request: Requested read-out: ΔG. Entry: CCC[C@H](NC(=O)[C@H](N)CCCCN)C(=O)N[C@@H](Cc1ccc([N+](=O)[O-])cc1)C(=O)NC(Cc1cscn1)C(=O)N[C@@H](COP(=O)(O)O)C(=O)N[C@@H](Cc1ccc([N+](=O)[O-])cc1)C(=O)N[C@@H](CO)CC(=O)NCCC(=O)N[C@@H](C)C(=O)N[C@@H](CCCCN)C(N)=O (stereo partly drawn) [5c] (H-[dK][Nva][Phe(4-NO2)][ξAla(4-thiazolyl)][pS][Phe(4-NO2)][β3hS][βAla]AK-NH2; N-terminus and C-terminus assumed)
Result: -7.7
